Origin of the recorded values: PubChem BioAssay (NCATS)

- system name: Furin (Homo sapiens)
- assay notes: Furin counterscreen qHTS for Zika virus inhibitors (AID 1347149); further: nearly all actives have a fitted effect of over 70% in size
- study conditions: furin enzymatic counterscreen, fluorogenic substrate; series mostly up to 57.5 µM
Records with an inconclusive call do not appear. The source made the active and inactive calls. The call rests on the fitted dose curve; in most records, active means well fitted inhibition curve with a large enough effect; inconclusive means small, poorly fitted or top-dose-only effect; inactive means no such curve, though single readings can be large or run the other way.
Return exactly one item of active, inactive

Field: outcome | Entry: C/C(=C\CC/C(C)=C/CC[C@]1(C)CCc2cc(O)cc(C)c2O1)CC/C=C(\C)C(=O)O
inactive

Which outcome did this test record for the molecule CC1(C)CC=C(c2cnc3ccccc3c2)c2cc(C(=O)Nc3ccc(C(=O)O)cc3)ccc21 ?
active

Status in this test for CCc1nnc(NS(=O)(=O)c2ccc(NC(=S)NC(=O)/C=C/c3ccc(F)cc3)cc2)s1 ?
inactive

Please state the recorded outcome for this molecule: Cc1ccccc1NC(=O)Nc1ccc(CN2C(=O)N([C@@H](CC(C)C)C(=O)N[C@@H](CC(=O)O)c3ccccc3)C(=O)C2(C)C)cc1
inactive

Which outcome did this test record for the molecule O=C(Nc1ccccc1)Nc1ccc(-c2ccc(C(=O)C3CCCC3C(=O)O)cc2)cc1 (stereo not drawn) ?
active

State the result this test recorded for COc1cc2c(c(O)c1OC/C=C(\C)CC/C=C(/C)CCC=C(C)C)CN(C(CCC(=O)O)C(=O)O)C2=O (stereo not drawn) .
inactive

Dear all, I need the recorded test outcome for CC(=O)OC12CC(C)C(OC(=O)c3ccccc3)C1/C=C(/C)C(OC(=O)c1ccccc1)CC(=O)C(C)(C)/C=C/C(C)C2=O (stereo not drawn) , thank you.
inactive

Status in this test for COc1cccc(OC)c1-c1cc(C(=O)N[C@@H](CC(C)C)C(=O)O)nn1-c1ccnc2cc(Cl)ccc12 ?
inactive
